Tested on: A549
Test: Antiproliferative activity against A549t12 cell line
Assay type: functional
Details: Homo sapiens
measured-endpoint: GI50 (µM)
// note: answer is a bare numeric in µM

As a guide, the following entries are already answered.
CC/C=C\[C@H](C)[C@H](OC(N)=O)[C@@H](C)[C@H](O)[C@@H](C)C/C(C)=C\[C@H](C)[C@@H](O)[C@@H](C)/C=C\[C@@H](O)C[C@H](O)[C@H](C)C[C@H](C)C(=O)OC	4
CC/C=C\[C@H](C)[C@H](OC(N)=O)[C@@H](C)[C@H](O)[C@@H](C)C/C(C)=C\[C@H](C)[C@@H](O)[C@@H](C)/C=C\[C@H](O)C[C@@H]1CCC(=O)O1	10
CC/C=C\[C@H](C)[C@H](OC(N)=O)[C@@H](C)[C@H](O)[C@@H](C)C/C(C)=C\[C@H](C)[C@@H](O)[C@@H](C)/C=C\[C@@H](O)C[C@H](O)[C@H](C)CO	5
CC/C=C\[C@H](C)[C@H](OC(N)=O)[C@@H](C)[C@H](O)[C@@H](C)C/C(C)=C\[C@H](C)[C@@H](O)[C@@H](C)/C=C\[C@@H](O)C[C@@H]1OC(=O)[C@H](C)C[C@H]1C	0.05

Okay, next one:
Query: GI50; subject: "CC/C=C\[C@H](C)[C@H](OC(N)=O)[C@@H](C)[C@H](O)[C@@H](C)C/C(C)=C\[C@H](C)[C@@H](O)[C@@H](C)/C=C\[C@@H](O)C[C@H]1CCC(=O)O1"
0.063
